Would you mind telling me the reported pKd of each entry?
# target: T1, scHLA-B27-mmH (engineered HLA-B*27 ectodomain in-line fusion protein) (human (HLA-B*2705, beta-2 …))
# T1 construct: also called soluble HLA-B*27 fusion protein
# measurement-protocol: SPR (Biacore), mAb captured, 25 C, PBS pH 5.75
Note: pKd values are expressed as the negative base-10 logarithm of concentration in M.

Sample H4H2530S (antibody, V domains shown) VH: EVQLVESGPGLVKPSQTLSLTCTVSGGSINSGGSYWSWIRQHPGKGLEWIGYIYSSGNTYYKPSLKSRVTISLDTSKNQFSLKMSSVTAADTAIYYCARDPRGITGTHYFDYWGQGTTVTVSS VL: EIVLTQSPGTLSLSPGERATLSCRTSQSISNKYLAWYQQKPGQAPRLLIYGASTRATGIPDRFSGSGSGTDFTLTISRLEPEDFAVYYCQQFGTSLFTFGPGTKVEIK — what was its pKd?
7.97

# lookup: pKd of H4H2524P (antibody, V domains shown) VH: QVQLQESGPGLVKPSQTLSLTCTVSGGSISSDGYYWSWIRQHPGKGLEWIGYIYYSGNTYYNPSLKSRVTISVDTSKNHFSLKLSSVTAADTAVYYCTRDPRGITGTHYFDYWGQGTLVTVSS VL: EIVLTQSPGTLSLSPGERATLSCRTSQSVSSSYLAWYQQKPGQAPRLLIYGASSRATGIPDRFSGSGSGTDFTLTISRLEPEDFAVYYCQQFGTSLFTFGPGTKVDIK
6.69

Entry H4H2542P (antibody, V domains shown) VH: EVQLVESGGGLVQPGRSLRLSCAASGFTFDDYAMHWVRQGPGKGLEWVSGISWNGRTMDHADSVKGRFTISRDNAKNSLYLQMNSLRNDDTGVYFCAKEGIPVAGTYFHFYGMDVWGQGTTVTVSS VL: EIVMTQSPATLSVSPGERVTLSCRASQSIGNYLAWYQQKPGQAPRLLIYGTSTRATGIPARFSGSGSGTEFTLTFSSLQSEDFAVYYCQQYNHWPLTFGGGTKVEIK : reported pKd = ?
6.31

Every entry's value here was drawn from patent US20130259876A1.
